- protocol details: Pharmacokinetic/toxicokinetic evaluation in rats
- Assay type: in vivo
- settings: female, rat, plasma, iv, 7.6 mg/kg, Dose 5
attribute measured: Cmax (ng/mL)

INSERT INTO assay_data (compound, units_of_measure, assay_result) VALUES
  ('CN1CCCC1CCNC(=O)c1cn2c3c(c(N4CCC(c5cnccn5)C4)c(F)cc3c1=O)Oc1cc3ccccc3cc1-2 (stereo not shown)', 'ng/mL', 1050);

---

# IC50 values compiled below
- tested on: c-Myc template DNA (c-myc quadruplex)
- protocol details: Quadruplex binding / stop assay (Taq polymerase arrest, capillary electrophoresis)
- settings: read-out: Stop Data c-Myc μM; concentration at which 50% of the DNA was arrested (arrested:full-length 1:1)
attribute measured: IC50 (µM)

INSERT INTO measurements (compound, attribute_measured, units_of_measure, assay_result) VALUES
  ('CCCCN1CCC(CNC(=O)c2cn3c4c(c(N5CCC(N)C5)c(F)cc4c2=O)Oc2cc4ccccc4cc2-3)CC1 (stereo not drawn) [compound 302]', 'IC50', 'µM', 1.75),
  ('CN(C)c1c(F)cc2c(=O)c(C(=O)O)cn3c4cc5oc6cc(N)ccc6[nH]c5cc4oc1c23 [compound 10]', 'IC50', 'µM', 1.75),
  ('O=C(NCCCn1ccnc1)c1cn2c3c(c(NCCCN4CCOCC4)c(F)cc3c1=O)Oc1cc3c(cc1-2)oc1ccccc13 [compound 313]', 'IC50', 'µM', 1),
  ('CN1CCCC1CCNc1c(F)cc2c(=O)c(C(=O)N3CC[C@@H](NC(=O)OC(C)(C)C)C3)cn3c2c1Oc1cc2ccccc2cc1-3 (stereo partly drawn) [compound 68]', 'IC50', 'µM', 2.5),
  ('CN1CCCC1CCNC(=O)c1cn2c3c(c(N4CCC(NC(=O)OC(C)(C)C)C4)c(F)cc3c1=O)Oc1cc3ccccc3cc1-2 (stereo not drawn) [compound 213]', 'IC50', 'µM', 1.75),
  ('CC(C)(C)OC(=O)NC1CCN(C(=O)c2cn3c4c(c(NCCCN5CCOCC5)c(F)c(N)c4c2=O)Oc2cc4ccccc4cc2-3)C1 (stereo not drawn) [compound 219]', 'IC50', 'µM', 1.75);

---

- Tested on: panel of cancer cell-lines
- protocol details: MTS cell survival assay, panel of cancer cell-lines
- Assay type: cell-based
- settings: 96 h; PC3 (Prostate), 4 days, MTS
pIC50: −log10 of the molar value.
attribute measured: pIC50

INSERT INTO measurements (compound, tested_on, attribute_measured, assay_result) VALUES
  ('CN1CCCC1CCNC(=O)c1cn2c3c(c(N4CCC(c5cnccn5)C4)c(F)cc3c1=O)Oc1cc3ccccc3cc1-2 (stereo not shown)', 'panel of cancer cell-lines', 'pIC50', 5.49);

---

- protocol details: Pharmacokinetic/toxicokinetic evaluation in dogs
- Format: in vivo, beagle dogs
- settings: female, beagle, dog, plasma, iv, 1.2 mg/kg, Dose 1, 1.2 mg/kg IV, median
attribute measured: Tmax (min)

INSERT INTO measurements (molecule, attribute_measured, units_of_measure, assay_result) VALUES
  ('CN1CCCC1CCNC(=O)c1cn2c3c(c(N4CCC(c5cnccn5)C4)c(F)cc3c1=O)Oc1cc3ccccc3cc1-2 (stereo not shown)', 'Tmax', 'min', 40.2);

---

- protocol details: Pharmacokinetic/toxicokinetic evaluation in rats
- Assay type: in vivo
- settings: rat, plasma, female, Dose 1, 7.2 mg/kg IV
attribute measured: AUC(0-inf) (ng·h/mL)

INSERT INTO results (compound, assay_result) VALUES
  ('CN1CCCC1CCNC(=O)c1cn2c3c(c(N4CCC(c5cnccn5)C4)c(F)cc3c1=O)Oc1cc3ccccc3cc1-2 (stereo not shown)', 861);

---

- protocol details: Pharmacokinetic/toxicokinetic evaluation in rats
- Assay type: in vivo
- settings: rat, plasma, iv, 7.6 mg/kg, male, Dose 1
attribute measured: AUC(0-inf) (ng·h/mL)

INSERT INTO results (compound, attribute_measured, assay_result) VALUES
  ('CN1CCCC1CCNC(=O)c1cn2c3c(c(N4CCC(c5cnccn5)C4)c(F)cc3c1=O)Oc1cc3ccccc3cc1-2 (stereo not shown)', 'AUC(0-inf)', 833);

---

- protocol details: Pharmacokinetic/toxicokinetic evaluation in dogs
- Type: in vivo, beagle dogs
- settings: female, beagle, dog, plasma, iv, 1.2 mg/kg, female, Dose 5, 1.2 mg/kg IV once daily for 5 days, mean, read-out: Cmax
attribute measured: Cmax

INSERT INTO measurements (compound, assay_result) VALUES
  ('CN1CCCC1CCNC(=O)c1cn2c3c(c(N4CCC(c5cnccn5)C4)c(F)cc3c1=O)Oc1cc3ccccc3cc1-2 (stereo not shown)', '145 ng/mL');

---

- protocol details: Pharmacokinetic/toxicokinetic evaluation in dogs
- Format: in vivo, beagle dogs
- settings: male, beagle, dog, plasma, iv, 1.2 mg/kg, male, Dose 1, 1.2 mg/kg IV, mean, read-out: AUC(0-24)
attribute measured: AUC(0-t) (µg·h/mL)

INSERT INTO assay_data (molecule, attribute_measured, assay_result) VALUES
  ('CN1CCCC1CCNC(=O)c1cn2c3c(c(N4CCC(c5cnccn5)C4)c(F)cc3c1=O)Oc1cc3ccccc3cc1-2 (stereo not shown)', 'AUC(0-t)', 0.314);

---

- tested on: c-Myc template DNA (c-myc quadruplex)
- protocol details: Quadruplex binding / stop assay (Taq polymerase arrest, capillary electrophoresis)
- settings: read-out: Stop Data c-Myc μM; concentration at which 50% of the DNA was arrested (arrested:full-length 1:1)
IC50 under 0.8 µM gets fulfilled, anything at or over 0.8 µM gets not fulfilled.

INSERT INTO results (compound, tested_on, group) VALUES
  ('CN1CCCC1CCNC(=O)c1cn2c3c(c(NC4CC(C)(C)NC(C)(C)C4)c(F)cc3c1=O)Oc1cc3ccccc3cc1-2 (stereo not drawn) [compound 325]', 'c-Myc template DNA (c-myc quadruplex)', 'not fulfilled'),
  ('Nc1c(F)c(N2CCC(N)C2)c2c3c1c(=O)c(C(=O)N1CCC(N)C1)cn3-c1cc3ccccc3cc1O2 (stereo not drawn) [compound 236]', 'c-Myc template DNA (c-myc quadruplex)', 'not fulfilled'),
  ('CN1CCCC1CCNC(=O)c1cn2c3cc4c(=O)c5ccccc5c(=O)c4cc3oc3c(NCCN4CCCC4)c(F)cc(c1=O)c32 (stereo not drawn) [compound 592]', 'c-Myc template DNA (c-myc quadruplex)', 'fulfilled'),
  ('CN1CCCC1CCNc1c(F)cc2c(=O)c(C(=O)NCCCN3CCOCC3)cn3c4cc5oc6cc([N+](=O)[O-])ccc6[nH]c5cc4oc1c23 (stereo not drawn) [compound 553]', 'c-Myc template DNA (c-myc quadruplex)', 'fulfilled'),
  ('CC(C)(C)OC(=O)N[C@@H]1CCN(C(=O)c2cn3c4c(c(NCCN5CCOCC5)c(F)cc4c2=O)Oc2cc4ccccc4cc2-3)C1 [compound 56]', 'c-Myc template DNA (c-myc quadruplex)', 'not fulfilled'),
  ('CC1CCCC(C)N1CCCNC(=O)c1cn2c3c(c(N4CCC(N)C4)c(F)cc3c1=O)Oc1cc3ccccc3cc1-2 (stereo not drawn) [compound 465]', 'c-Myc template DNA (c-myc quadruplex)', 'fulfilled');

---

- tested on: c-Myc template DNA (c-myc quadruplex)
- protocol details: Quadruplex binding / stop assay (Taq polymerase arrest, capillary electrophoresis)
- settings: read-out: Stop Data c-Myc μM; concentration at which 50% of the DNA was arrested (arrested:full-length 1:1)
IC50 reference
attribute measured: IC50 (µM)

INSERT INTO assay_data (molecule, units_of_measure, assay_result) VALUES
  ('CN1CCCC1CCNC(=O)c1cn2c3c(c(NC[C@@H]4CCCO4)c(F)cc3c1=O)Oc1cc3ccccc3cc1-2 (stereo partly shown) [compound 26]', 'µM', 4),
  ('CN(C)CCCCNc1c(F)cc2c(=O)c(C(=O)NCCN3CCCC3)cn3c2c1Oc1c-3ccc2ccccc12', 'µM', 0.41),
  ('CN(C)CCCCNC(=O)c1cn2c3c(c(NCCN4CCCC4)c(F)cc3c1=O)Oc1cc3c(cc1-2)oc1ccccc13', 'µM', 1.75),
  ('CN1CCCC1CCNC(=O)c1cn2c3c(c(N4CCC(c5cccnc5)C4)c(F)cc3c1=O)Oc1cc3ccccc3cc1-2 (stereo not shown)', 'µM', 0.75),
  ('CN(C)CCCCNc1c(F)cc2c(=O)c(C(=O)O)cn3c4cc5oc6cc(N)ccc6[nH]c5cc4oc1c23', 'µM', 0.75),
  ('CN1CCCC1CCNc1ccc2c(=O)c(C(=O)NCCN3CCCC3)cn3c2c1Oc1cc2ccccc2cc1-3 (stereo not shown)', 'µM', 0.75),
  ('Nc1c(F)c(NCCCN2CCOCC2)c2c3c1c(=O)c(C(=O)O)cn3-c1cc3ccccc3cc1O2', 'µM', 1.75);
